Recorded values, source paper PMC12416549.

- Tested target: T1, TNFR1 (Homo sapiens, UniProt P19438)
- T1 chain: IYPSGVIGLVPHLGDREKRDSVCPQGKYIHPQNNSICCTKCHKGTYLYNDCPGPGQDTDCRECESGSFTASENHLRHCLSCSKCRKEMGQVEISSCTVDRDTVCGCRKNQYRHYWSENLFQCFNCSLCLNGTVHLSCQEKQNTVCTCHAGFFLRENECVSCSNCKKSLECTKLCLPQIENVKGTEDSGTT
- Test protocol: yeast display SC50
Measure: apparent Kd (screen) (pM)

Below, 5 binders whose answers are already recorded.
### Prompt Recall and state the measured apparent Kd (screen) for S77R (designed binder) SMEEEVEKAAKEYEKKKKEAIEKHLEKLKAKDKEAAERFLKELEEAAKEYAKDEAKTMSEEEAKRRAKKYKEKVLLRELSEEEQKEIKEAEEKLVRTILKYVEEAAK .
### Response 1860

### Prompt Recall and state the measured apparent Kd (screen) for L43N (designed binder) SMEEEVEKAAKEYEKKKKEAIEKHLEKLKAKDKEAAERFLKENEEAAKEYAKDEAKTMSEEEAKRRAKKYKEKVLLSELSEEEQKEIKEAEEKLVRTILKYVEEAAK .
### Response 446

### Prompt Recall and state the measured apparent Kd (screen) for K52V (designed binder) SMEEEVEKAAKEYEKKKKEAIEKHLEKLKAKDKEAAERFLKELEEAAKEYAVDEAKTMSEEEAKRRAKKYKEKVLLSELSEEEQKEIKEAEEKLVRTILKYVEEAAK .
### Response 956

### Prompt Recall and state the measured apparent Kd (screen) for L28Y (designed binder) SMEEEVEKAAKEYEKKKKEAIEKHLEKYKAKDKEAAERFLKELEEAAKEYAKDEAKTMSEEEAKRRAKKYKEKVLLSELSEEEQKEIKEAEEKLVRTILKYVEEAAK .
### Response 446

### Prompt Recall and state the measured apparent Kd (screen) for E89C (designed binder) SMEEEVEKAAKEYEKKKKEAIEKHLEKLKAKDKEAAERFLKELEEAAKEYAKDEAKTMSEEEAKRRAKKYKEKVLLSELSEEEQKEIKCAEEKLVRTILKYVEEAAK .
### Response 1860

P: L28A (designed binder) SMEEEVEKAAKEYEKKKKEAIEKHLEKAKAKDKEAAERFLKELEEAAKEYAKDEAKTMSEEEAKRRAKKYKEKVLLSELSEEEQKEIKEAEEKLVRTILKYVEEAAK
Q: F39P (designed binder) SMEEEVEKAAKEYEKKKKEAIEKHLEKLKAKDKEAAERPLKELEEAAKEYAKDEAKTMSEEEAKRRAKKYKEKVLLSELSEEEQKEIKEAEEKLVRTILKYVEEAAK
### Prompt Field: lower apparent Kd (screen) | Options: P / Q Refer to your chosen item by its label in the answer.
### Response P
